system: T-47D breast; test: NCI tumour cell line growth inhibition, 48 h

compound: Brc1ccc2[nH]cc(-c3csc(-c4c[nH]c5ccccc45)n3)c2c1
measurement_target: T-47D breast
censoring_qualifier: =
TGI [µM]: 26.9

compound: CC1=C(C)CC2C(=O)N(c3cc(C(C)(C)C)ccc3C(C)(C)C)C(=O)C2C1 (stereo not given)
measurement_target: T-47D breast
censoring_qualifier: >
TGI [µM]: 100

compound: CCOC(=O)CCC(NC(=O)Cc1ccc(Nc2nc3cc(F)c(F)cc3nc2C(=O)OCC)cc1)C(=O)OCC (stereo not given)
measurement_target: T-47D breast
censoring_qualifier: =
TGI [µM]: 78.8

compound: N=C(N)C1CN(CCc2c[nH]c3ccccc23)C(=O)NC1=O (stereo not given)
measurement_target: T-47D breast
censoring_qualifier: >
TGI [µM]: 100

compound: O=C(Nc1ccc(Nc2ccncc2)cc1)c1ccc([N+](=O)[O-])cc1
measurement_target: T-47D breast
censoring_qualifier: =
TGI [µM]: 20

---

system: UO-31 renal; assay: NCI tumour cell line growth inhibition, 48 h
Consider the following compounds and their measured log10 of TGI readings.
observation_type: log10 of TGI (log10 of the value in µM)

compound: CC(=O)CCn1ncc(Cl)c(Cl)c1=O
measurement_target: UO-31 renal
test_result: 1.54
--
compound: O=c1/c(=C/c2ccccc2[N+](=O)[O-])sc2nnc(-c3ccco3)n12
measurement_target: UO-31 renal
test_result: 1.99
--
compound: CCN(CC)CCC(CNc1ccnc2cc(Cl)ccc12)c1ccc(Cl)cc1 (configuration not stated)
measurement_target: UO-31 renal
test_result: 0.32
--
compound: CCCCC#CC1=C(Br)C(=O)OC1
measurement_target: UO-31 renal
test_result: 0.49
--
compound: COc1ccc(Sc2[nH]c(C(C)=O)c3ccccc23)cc1
measurement_target: UO-31 renal
test_result: 1.37
--
compound: Nc1nn2cc(F)cnc2c1C(=O)Nc1cncc(F)c1N1CCC(C(=O)N2CCN(C3COC3)CC2)CC1
measurement_target: UO-31 renal
test_result: 0.42
--
compound: CCN(CC)Cc1ccc(C(=S)Nc2ccc(Cl)cc2)s1
measurement_target: UO-31 renal
test_result: 1.37
--
compound: COc1ccc(OC)c2c1[nH]c(=O)c1c3ccccc3cn21
measurement_target: UO-31 renal
test_result: 0.38
--
compound: NC(N)=NS(=O)(=O)c1ccc(NNc2c3ccccc3nc3c(C(=O)Nc4ccc(S(=O)(=O)Nc5ncccn5)cc4)cccc23)cc1
measurement_target: UO-31 renal
test_result: 1.92
--
compound: CC[As](CC)SC[C@H](C)C(=O)N1CCC[C@H]1C(=O)O
measurement_target: UO-31 renal
test_result: -1.03
--
compound: CCOc1ncn(-c2ccc(NC(=S)Nc3ncccn3)cc2)n1
measurement_target: UO-31 renal
test_result: 1.56
--
compound: Cc1ccc(S(=O)(=O)c2[nH]cc(/C(=C\C3CCCCC3)[N+](=O)[O-])c2C2CCCCC2)cc1
measurement_target: UO-31 renal
test_result: 0.12
--
compound: Brc1ccc2[nH]cc(-c3csc(-c4c[nH]c5ccccc45)n3)c2c1
measurement_target: UO-31 renal
test_result: 1.05
--
compound: Cc1ccc(SC2c3ccc(C)cc3Oc3nc(N)c(C#N)c(N)c32)cc1 (configuration not stated)
measurement_target: UO-31 renal
test_result: 0.40
--
compound: CC(=O)OC1COC(Oc2c(C)c3c4c(c2O)[C@@H](C)CC[C@@H]4[C@@H](C)C[C@H]3C=C(C)C)C(O)C1OC(C)=O (some centres not stated)
measurement_target: UO-31 renal
test_result: 1.61
--
compound: COc1cccc(C2CC(C)(O)Oc3cc4c(cc32)OCO4)c1O (configuration not stated)
measurement_target: UO-31 renal
test_result: 1.99
--
compound: CC1=NN(c2nc(N)nc(/C(C#N)=C\c3ccc([N+](=O)[O-])s3)n2)C(C)(C)C1
measurement_target: UO-31 renal
test_result: -0.56
--
compound: CC(=O)Nc1ccc(S(=O)(=O)N2C(=O)CCC2C(=O)Nc2ccc(Br)cc2)cc1 (configuration not stated)
measurement_target: UO-31 renal
test_result: 0.91
--
compound: CC1(C)N=C(N)N=C(N)N1c1ccc(CCCCc2ccc(Cl)cc2S(=O)(=O)F)c(Cl)c1
measurement_target: UO-31 renal
test_result: 1.37
